Hey, just so you know, these numbers are from the supplement of paper PMC12645437.

# MEASURED_ON: T1, CRBN, Q96SW2
# T1 chain: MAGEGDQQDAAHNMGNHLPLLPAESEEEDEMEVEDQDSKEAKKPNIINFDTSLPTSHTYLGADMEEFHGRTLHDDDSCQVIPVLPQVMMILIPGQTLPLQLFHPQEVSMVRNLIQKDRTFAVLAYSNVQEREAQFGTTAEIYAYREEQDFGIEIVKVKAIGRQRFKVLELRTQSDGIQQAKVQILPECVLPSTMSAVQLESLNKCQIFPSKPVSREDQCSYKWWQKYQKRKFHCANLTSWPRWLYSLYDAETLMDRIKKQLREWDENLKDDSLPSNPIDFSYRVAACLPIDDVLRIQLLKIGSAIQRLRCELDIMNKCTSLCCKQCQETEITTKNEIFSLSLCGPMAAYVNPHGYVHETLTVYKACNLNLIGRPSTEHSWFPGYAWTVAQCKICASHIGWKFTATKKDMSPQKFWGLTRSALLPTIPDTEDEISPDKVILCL
# EXPERIMENTAL_PROTOCOL: log2 fold change of degron read counts, EGFP-low vs EGFP+ sorted cells (limma voom), compound-induced degradation; higher = more compound-induced degradation of the degron-EGFP fusion; degrons are variants of IKZF1/3 zinc finger 2; compound dose not given here;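 also: pooled lentiviral library of zinc finger degron-EGFP fusions in mCherry-positive Jurkat cells, FACS-sorted after compound exposure, with degron abundance counted by next-generation sequencing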
# MEASUREMENT_PARAMETERS: Jurkat; 18 h; compound: compound 22 (5-morpholino-thalidomide)
Whole data set: some 8,300 sequences, median “log2 fold change of degron read counts, EGFP-low vs EGFP+ sorted cells (limma voom), compound-induced degradation” near -1.1, cut for the highest 2% near 3.2. The full list was thinned out, with the highest values kept by preference.
Outcome: Satisfied for log2 fold change of degron read counts of at least 2; Not satisfied for anything lower.

Worked examples, 4 sequences total:
FRCNICGAAFTQKGNLLRHIKL [46F_47R_49N_50I_52G_53A_54A_55F_67L_, Q9UKT9] ... Not satisfied
LCCPICGFSCTQKGNLLRHIKL [46L_47C_49P_50I_52G_53F_54S_55C_67L_, Q9UKT9] ... Satisfied
FFCDICGAKFTQKGNLLRHIKL [46F_47F_49D_50I_52G_53A_54K_55F_67L_, Q9UKT9] ... Satisfied
FYCEICGACFTQKGNLLRHIKL [46F_47Y_49E_50I_52G_53A_54C_55F_67L_, Q9UKT9] ... Satisfied

Is log2 fold change of degron read counts for FTCDICGAKFTQKGNLLRHIKL [46F_47T_49D_50I_52G_53A_54K_55F_67L_, Q9UKT9] at or above 2?
Not satisfied

Is log2 fold change of degron read counts for FSCEICGACFTQKGNLLRHIKL [46F_47S_49E_50I_52G_53A_54C_55F_67L_, Q9UKT9] at or above 2?
Satisfied

Is log2 fold change of degron read counts for FECNICGAAFTQKGNLLRHIKL [46F_47E_49N_50I_52G_53A_54A_55F_67L_, Q9UKT9] at or above 2?
Not satisfied
